Target: CTX-M-44 (Class C) β-lactamase (Escherichia coli, UniProt Q47066)
Test: In vitro enzymatic assay (Nitrocefin)
assay metric: pIC50
The meaning of pIC50 here: minus log10 of the concentration in molar units.

Exercise: Request the reported pIC50 associated with NC(=O)[C@@H]1CC[C@@H]2CN1C(=O)N2OS(=O)(=O)O [Avibactam, avibactam]
Solution: 7.17

Exercise: Request the reported pIC50 associated with N=C(N)NOCCONC(=O)[C@@H]1CC[C@@H]2CN1C(=O)N2OS(=O)(=O)O [Compound 1]
Solution: 7.50
